Listed next: entries and their corresponding DβH activity, Mean ± SEM, % of control.
# System: human DβH (Homo sapiens)
# Construct: endogenous in cells; host or cells: SK-N-SH cells
# Sequence (P09172 whole entry): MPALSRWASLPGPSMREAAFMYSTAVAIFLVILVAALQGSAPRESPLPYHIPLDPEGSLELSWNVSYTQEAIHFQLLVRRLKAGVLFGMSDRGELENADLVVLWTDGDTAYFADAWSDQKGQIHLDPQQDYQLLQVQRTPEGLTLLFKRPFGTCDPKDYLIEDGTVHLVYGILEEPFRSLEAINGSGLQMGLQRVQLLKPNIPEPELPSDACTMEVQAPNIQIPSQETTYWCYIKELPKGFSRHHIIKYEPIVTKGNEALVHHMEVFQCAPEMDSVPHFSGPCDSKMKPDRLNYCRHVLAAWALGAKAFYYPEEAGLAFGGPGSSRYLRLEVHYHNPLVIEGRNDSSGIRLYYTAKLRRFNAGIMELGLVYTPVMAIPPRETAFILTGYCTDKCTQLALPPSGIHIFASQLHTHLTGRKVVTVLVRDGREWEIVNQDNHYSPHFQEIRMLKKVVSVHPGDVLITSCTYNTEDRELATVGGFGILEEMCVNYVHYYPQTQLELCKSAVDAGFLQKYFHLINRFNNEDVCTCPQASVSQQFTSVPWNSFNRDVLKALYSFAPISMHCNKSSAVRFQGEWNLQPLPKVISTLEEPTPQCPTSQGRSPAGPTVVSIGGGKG
# Assay procedure: DβH activity in SK-N-SH cells (β-hydroxylation of dopamine to noradrenaline)
# Format: cell-based
# Assay conditions: compound 5 μM

Sample records with DβH activity, Mean ± SEM, % of control:
[
  {
    "Molecule": "Cl.NCCc1c[nH]c(=S)n1[C@H]1CSc2ccc(O)cc2C1 (racemic)",
    "Measured parameter": "DβH activity, Mean ± SEM, % of control",
    "Reported measurement": "27.3 ± 0.4 % of control"
  },
  {
    "Molecule": "NCc1c[nH]c(=S)n1[C@H]1CCc2c(F)cc(F)cc2C1 [Nepicastat 1, nepicastat, reference compound]",
    "Measured parameter": "DβH activity, Mean ± SEM, % of control",
    "Reported measurement": "0.0 ± 0.3 % of control"
  },
  {
    "Molecule": "Cl.NCc1c[nH]c(=S)n1[C@H]1COc2ccccc2C1",
    "Measured parameter": "DβH activity, Mean ± SEM, % of control",
    "Reported measurement": "0.0 ± 1.9 % of control"
  }
]

Looking up `Cl.NCCc1c[nH]c(=S)n1[C@H]1COc2ccc(O)cc2C1` , I see its DβH activity, Mean ± SEM, % of control listed as 0.0 ± 0.6 % of control

Looking up `Cl.NCCc1c[nH]c(=S)n1[C@H]1COc2ccc(F)cc2C1` , I see its DβH activity, Mean ± SEM, % of control listed as 8.0 ± 0.1 % of control

Looking up `Cl.NCCc1c[nH]c(=S)n1[C@H]1COc2ccccc2C1` , I see its DβH activity, Mean ± SEM, % of control listed as 3.0 ± 0.5 % of control

Looking up COc1ccc2c(c1)C[C@@H](n1c(CCN)c[nH]c1=S)CS2.Cl (racemic) , I see its DβH activity, Mean ± SEM, % of control listed as 99.4 ± 2.8 % of control
